These data points were gathered from paper PMC11509930.

- Substrate: c1ccc([C@H]2CO2)cc1
- Assay Summary: purified protein
- Format: biochemical, Phanerodontia chrysosporium
- Measurement Setup: 10-80 mM SO, 37 °C, buffer pH 8.0
Endpoint: Km (mM)

[[record]]
protein = "PchEHA (epoxide hydrolase) (Phanerodontia chrysosporium; A24T/E251G) (protein, catalytic triad D105/H308/D277) MDASLFKDFKTSRGFNYHYFYSPTKGPRPTLFFLHGNPSVATDWAQIVPHFTSRGYGVLAPDMLGYGDTDKPTDPALYVSSGMCRNLVDLLDHEGLEKVIAIGHDWGCLSVSRLASYYPERVIAYAFLAASFIGPIPPIPFDAFLEYIKQQVGYELYGYWKFYSEPGLDQFVRDHLDTFLSILWPSDPAVWKTRLAPTGALKQSALEGWTAPLAPYITEEFKKHHVEVFNKNGFEAPACYYRIMTSGLQAGDDKQILPERAVPPKDAPVFFGAANKDYICIPALAYATFKKDEWKDHKITIKEYDADHWLILSHADQVSRDLEAWIEGFASGGQ"
endpoint = "Km"
unit = "mM"
measured = 43.98

